TEST_TARGET: UniProt Q9NWZ3
Sequence (Q9NWZ3 whole entry): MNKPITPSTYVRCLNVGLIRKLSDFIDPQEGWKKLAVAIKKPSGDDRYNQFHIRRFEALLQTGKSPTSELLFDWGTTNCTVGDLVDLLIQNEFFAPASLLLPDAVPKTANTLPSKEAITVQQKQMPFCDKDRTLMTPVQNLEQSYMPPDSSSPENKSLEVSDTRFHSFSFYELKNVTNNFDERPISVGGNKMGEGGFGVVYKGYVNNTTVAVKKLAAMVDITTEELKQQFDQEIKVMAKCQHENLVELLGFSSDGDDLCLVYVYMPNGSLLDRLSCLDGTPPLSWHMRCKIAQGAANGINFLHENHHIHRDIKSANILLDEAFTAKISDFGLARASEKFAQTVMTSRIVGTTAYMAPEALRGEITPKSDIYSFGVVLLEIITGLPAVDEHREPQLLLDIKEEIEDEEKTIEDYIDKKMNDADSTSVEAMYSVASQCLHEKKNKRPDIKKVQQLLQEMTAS
METHOD_SUMMARY: IRAK4 Biochemical Assay (TR-FRET, STK1 KinEASE)
ENDPOINT: pIC50
On this scale, pIC50 is minus log10 of a concentration expressed in M (mol/L).

CC(=O)N1C[C@H]2C[C@@H]1CN2c1nnc(-c2cnc(-c3ccc4cc(C#N)cnn34)cc2NC(C)C)s1: 9.29
CC(=O)NC12CCC(c3nnc(-c4cnc(-c5ccc6cc(C#N)cnn56)cc4NC4COC4)s3)(CC1)OC2: 9.10
CC(=O)NC1CN(c2nnc(-c3cnc(-c4ccc5cc(C#N)cnn45)cc3NC(C)C)s2)C1: 9.31

Notebook entry, UniProt Q9NWZ3 assay: pIC50 of "CC(C)Nc1cc(-c2ccc3cc(C#N)cnn23)ncc1-c1nnc(C(=O)N2CCC[C@@H]2CO)s1" = ? 9.34

Query pIC50 on UniProt Q9NWZ3 for "CC1(O)CCN(c2nnc(-c3cnc(-c4ccc5cc(C#N)cnn45)cc3NC3COC3)s2)CC1" 9.18
